Source: patent US20060264460A1

Listing of entries alongside the reported log10 IC50.
Molecular target: human Cot/Tpl2 kinase (Homo sapiens, UniProt P41279)
Construct: human Cot/Tpl2 kinase construct encoding residues 30-398; 6His (N); made in house; host or cells: Sf9 insect cells, baculovirus system (BD Biosciences)
Sequence (P41279 30-398): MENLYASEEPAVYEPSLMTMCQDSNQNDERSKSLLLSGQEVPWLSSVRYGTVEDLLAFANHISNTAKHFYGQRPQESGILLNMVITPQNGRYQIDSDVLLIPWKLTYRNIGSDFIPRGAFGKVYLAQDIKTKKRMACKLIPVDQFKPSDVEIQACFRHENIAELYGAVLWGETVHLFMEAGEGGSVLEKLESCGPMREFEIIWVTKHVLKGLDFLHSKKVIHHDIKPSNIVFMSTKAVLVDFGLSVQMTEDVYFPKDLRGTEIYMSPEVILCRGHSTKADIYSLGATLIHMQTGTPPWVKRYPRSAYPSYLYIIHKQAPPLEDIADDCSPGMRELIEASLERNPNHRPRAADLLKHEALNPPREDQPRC
Experiment: Tpl2/Cot kinase assay: GST-MEK1 phosphorylation detected by ELISA (DELFIA Eu)
Format: biochemical
Details: Table 2; Tpl2/Cot kinase, GST-MEK1 substrate, 50 uM ATP
Method: Sf9 cells expressing the kinase were lysed in 50 mM NaPhosphate pH=8; 300 mM NaCl; 5 mM imidazole; 0.1 mM EGTA; 25 mM beta-glycerophosphate; 1% TX-100, 1% glycerol; 6 mM beta-mercaptoethanol and protease inhibitors. […] Tpl2/Cot activity was directly assayed using GST-MEK1 as a substrate. GST-MEK1 phosphorylation on serine residues 217 and 221 was detected by ELISA. […] After a final wash, Eu detection solution was added to each well and the Eu signal was measured in a Wallac Victor^2 Multilabel Counter. […]
Property measured: log10 IC50 (log10 of the value in µM)

[
  {
    "Molecule": "CN(C)CC(c1ccccc1)n1cc(CNc2cc(Br)c3ncc(C#N)c(Nc4ccc(F)c(Cl)c4)c3c2)nn1 (stereo not drawn) [Example 575]",
    "Property measured": "log10 IC50",
    "Test value": -1.03
  },
  {
    "Molecule": "CN(C)C(=O)CCn1cc(CNc2cc(Cl)c3ncc(C#N)c(Nc4ccc(F)c(Cl)c4)c3c2)nn1 [Example 614]",
    "Property measured": "log10 IC50",
    "Test value": -2.00
  },
  {
    "Molecule": "CN(C)CCNC(=O)CNc1cc(Cl)c2ncc(C#N)c(Nc3ccc(F)c(Cl)c3)c2c1 [Example 605]",
    "Property measured": "log10 IC50",
    "Test value": 0.20
  },
  {
    "Molecule": "N#Cc1cnc2c(Br)cc(NCc3cn(-c4cc[n+]([O-])cc4)nn3)cc2c1Nc1ccc(F)c(Cl)c1 [Example 577]",
    "Property measured": "log10 IC50",
    "Test value": -1.82
  },
  {
    "Molecule": "CS(=O)(=O)c1ccc(CNc2ccc3ncc(C#N)c(Nc4cccc(Cl)c4)c3c2)cc1 [Example 349]",
    "Property measured": "log10 IC50",
    "Test value": -0.43
  },
  {
    "Molecule": "CC(C)(C)OC(=O)N1CCC(Cn2cc(CNc3cc(Br)c4ncc(C#N)c(Nc5ccc(F)c(Cl)c5)c4c3)nn2)CC1 [Example 494]",
    "Property measured": "log10 IC50",
    "Test value": -0.77
  },
  {
    "Molecule": "COCCOc1ccc(CNc2ccc3ncc(C#N)c(Nc4ccc(F)c(Cl)c4)c3c2)cc1Br [Example 371]",
    "Property measured": "log10 IC50",
    "Test value": -0.42
  },
  {
    "Molecule": "N#Cc1cnc2ccc(NCc3ccn[nH]3)cc2c1NC1CCCC1 [Example 413]",
    "Property measured": "log10 IC50",
    "Test value": 0.20
  },
  {
    "Molecule": "N#Cc1cnc2c(Cl)cc(NCC(=O)N3CCNCC3)cc2c1Nc1ccc(F)c(Cl)c1 [Example 470]",
    "Property measured": "log10 IC50",
    "Test value": -0.38
  },
  {
    "Molecule": "CN(CCCn1cc(CNc2cc(Cl)c3ncc(C#N)c(Nc4ccc(F)c(Cl)c4)c3c2)nn1)C1CCCCC1 [Example 609]",
    "Property measured": "log10 IC50",
    "Test value": -2.74
  },
  {
    "Molecule": "N#Cc1cnc2c(Br)cc(NCc3cn(CC4CCNCC4)nn3)cc2c1Nc1ccc(F)c(Cl)c1 [Example 496]",
    "Property measured": "log10 IC50",
    "Test value": -1.33
  },
  {
    "Molecule": "COC(=O)c1cnc(CNc2cc(Cl)c3ncc(C#N)c(Nc4ccc(F)c(Cl)c4)c3c2)n1C [Example 442]",
    "Property measured": "log10 IC50",
    "Test value": 0.53
  },
  {
    "Molecule": "COCCCc1nc[nH]c1CNc1cc(Br)c2ncc(C#N)c(Nc3ccc(F)c(Cl)c3)c2c1 [Example 507]",
    "Property measured": "log10 IC50",
    "Test value": -1.21
  }
]
